Recorded IC50 for the following compounds
- Tested on: NIH-3T3 viability, ATP luminescence
- experimental-details: murine fibroblast viability via ATP level – cell-based, murine fibroblasts, cytotoxicity control for Trypanosoma cruzi inhibitor project (AID 1159561)
- measurement-conditions: 4 days
Activity calls are given as the source filed them.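 How the source made its calls: active means toxic to mouse fibroblast host cells, with IC50 below 50 µM; inactive means the rest.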
property-measured: IC50

* CC(=O)Nc1ccc(-c2csc(NC(=O)c3ccc([N+](=O)[O-])s3)n2)cc1 | 6.3 µM
* CCN(C)Cc1ccc(N2CCC(NS(=O)(=O)c3ccc4c(c3)CCO4)CC2)nc1 | 13 µM
* COc1ccc2ncc(F)c(NC(=O)C3(O)CCC(NCc4ccc5c(c4)OCCO5)CC3)c2n1 (stereo not given) | 7.9 µM
* N#Cc1cccc(CN2CCC(c3nc(-c4ccc(C(F)(F)F)nc4)no3)CC2)c1 | > 50 µM (inactive)
* CN1CCN(c2nc(-c3ccc(Cl)cc3)c3c(N)n(C)nc3n2)CC1 | 25 µM
* CN(Cc1ccccc1)Cc1nnnn1C1CCN(Cc2ccc(-n3ccnc3)cc2)CC1 | 4 µM
* CS(=O)(=O)c1cccc(-c2cnc(N)c3c(-c4ccc(CO)cc4)csc23)c1 | 25 µM
* CN(C)CCN(C)Cc1ccc(F)cc1NS(=O)(=O)c1ccc(Cl)c(Cl)c1 | 16 µM
* c1ccc2c(CCOc3nccnc3-c3ccncc3)c[nH]c2c1 | 20 µM
* N#Cc1c(Oc2cccc(Cl)c2)cccc1[N+](=O)[O-] | 20 µM
